Target: Bruton's tyrosine kinase (BTK) (Homo sapiens (Human))
Rule: IC50 below 2 nM gives class 1. Equal to or above 2 nM gives class 0.

{"columns": ["MOLECULE", "ASSIGNED_LABEL"],
 "data": [
  ["Cc1cccc(C)c1Nc1nn(C)c2nc(Nc3ccc4c(c3)CN(C(=O)C3CC3)CC4)ncc12 [Example 23]", "class 1"],
  ["Cc1cccc(C)c1Nc1nn(C2CCCC2)c2nc(Nc3ccc4c(c3)CNCC4)ncc12 [Example 25]", "class 1"],
  ["Cc1cccc(C)c1Nc1nn(C)c2nc(Nc3ccc4c(c3)C(C)(C)NCC4)ncc12 [Example 58]", "class 1"],
  ["CC(=O)N1CCC(c2ccc(Nc3ncc4c(Nc5c(C)cccc5C)nn(C)c4n3)cc2)CC1 [Comparative Example 2, reference compound]", "class 0"],
  ["Cc1cccc(C)c1Nc1nn(C)c2nc(Nc3ccc4c(c3)CN(C)CC4(C)C)ncc12 [Example 63]", "class 0"],
  ["COc1cc(C)c(Nc2nn(C)c3nc(Nc4ccc5c(c4)CNCC5)ncc23)c(C)c1 [Example 35]", "class 0"],
  ["Cc1cccc(C)c1Nc1nn(C)c2nc(Nc3ccc4c(c3)C(C)(C)N(C)CC4)ncc12 [Example 59]", "class 1"],
  ["Cc1cccc(C)c1Nc1nn(C)c2nc(Nc3ccc4c(c3)CN(C(=O)CN(C)C)CC4)ncc12 [Example 31]", "class 1"]
]}

###

Molecular target: Bruton's tyrosine kinase (BTK) (Homo sapiens (Human), UniProt Q06187)
Sequence (Q06187 whole entry): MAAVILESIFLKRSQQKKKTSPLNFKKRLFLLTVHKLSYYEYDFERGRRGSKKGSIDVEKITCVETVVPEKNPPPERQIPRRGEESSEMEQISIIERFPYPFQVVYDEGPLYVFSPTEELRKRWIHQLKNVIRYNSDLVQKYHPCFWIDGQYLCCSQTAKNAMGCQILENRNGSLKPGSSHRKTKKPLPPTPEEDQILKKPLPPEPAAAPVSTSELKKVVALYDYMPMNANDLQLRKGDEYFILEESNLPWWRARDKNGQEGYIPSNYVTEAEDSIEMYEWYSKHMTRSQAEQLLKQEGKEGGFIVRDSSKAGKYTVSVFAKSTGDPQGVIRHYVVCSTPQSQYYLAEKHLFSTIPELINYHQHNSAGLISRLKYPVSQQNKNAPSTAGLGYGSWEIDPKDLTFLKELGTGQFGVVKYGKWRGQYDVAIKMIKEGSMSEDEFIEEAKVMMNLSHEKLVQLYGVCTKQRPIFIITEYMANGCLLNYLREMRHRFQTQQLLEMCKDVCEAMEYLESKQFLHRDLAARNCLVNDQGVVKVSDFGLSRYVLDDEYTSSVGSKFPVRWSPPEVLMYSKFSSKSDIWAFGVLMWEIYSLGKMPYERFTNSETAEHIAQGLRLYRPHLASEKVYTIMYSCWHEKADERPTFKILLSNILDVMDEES
pIC50: −log10 of the molar value. Counter-ions that a name gives are not always drawn.
Listing of recorded pIC50 by entry.
VALUE_TYPE: pIC50

{"columns": ["COMPOUND", "TARGET_SYSTEM", "REPORTED_MEASUREMENT"],
 "data": [
  ["Cc1ccc(Nc2nn(C)c3nc(Nc4ccc5c(c4)CNCC5)ncc23)c(C)c1 [Example 39]", "Bruton's tyrosine kinase (BTK) (Homo sapiens (Human), UniProt Q06187)", 8.55],
  ["CC(=O)N1CCc2ccc(Nc3ncc4c(Nc5c(C)cccc5C)nn(C)c4n3)cc2C1C (stereo not drawn) [Example 61]", "Bruton's tyrosine kinase (BTK) (Homo sapiens (Human), UniProt Q06187)", 8.99],
  ["Cc1cccc(C)c1Nc1nn(C)c2nc(Nc3ccc4c(c3)C(C(C)C)NCC4)ncc12 (stereo not drawn) [Example 49]", "Bruton's tyrosine kinase (BTK) (Homo sapiens (Human), UniProt Q06187)", 8.79],
  ["Cc1cccc(C)c1Nc1nn(C)c2nc(Nc3ccc4c(c3)CNC4)ncc12 [Example 56, hydrochloride]", "Bruton's tyrosine kinase (BTK) (Homo sapiens (Human), UniProt Q06187)", 9.13],
  ["Cn1nc(Nc2c(Cl)cccc2Cl)c2cnc(Nc3ccc4c(c3)CNCC4)nc21 [Example 12]", "Bruton's tyrosine kinase (BTK) (Homo sapiens (Human), UniProt Q06187)", 8.43],
  ["Cc1cccc(C)c1Nc1nn(C2CCCCC2)c2nc(Nc3ccc4c(c3)CNCC4)ncc12 [Example 26]", "Bruton's tyrosine kinase (BTK) (Homo sapiens (Human), UniProt Q06187)", 8.70],
  ["Cc1cccc(C)c1Nc1nn(C)c2nc(Nc3ccc(C4CCNCC4)cc3)ncc12 [Comparative Example 1, reference compound]", "Bruton's tyrosine kinase (BTK) (Homo sapiens (Human), UniProt Q06187)", 8.00],
  ["Cn1nc(Nc2c(Cl)cccc2Cl)c2cnc(Nc3ccc4c(c3)CN(C(=O)C(F)(F)F)CC4)nc21 [Example 11]", "Bruton's tyrosine kinase (BTK) (Homo sapiens (Human), UniProt Q06187)", 6.41],
  ["Cc1cccc(C)c1Nc1nn(C)c2nc(Nc3ccc4c(c3)C(C(C)C)N(C)CC4)ncc12 (stereo not drawn) [Example 65]", "Bruton's tyrosine kinase (BTK) (Homo sapiens (Human), UniProt Q06187)", 8.11],
  ["Cc1cc(C(=O)Nc2ccccn2)cc(C)c1Nc1nn(C)c2nc(Nc3ccc4c(c3)CNCC4)ncc12 [Example 34]", "Bruton's tyrosine kinase (BTK) (Homo sapiens (Human), UniProt Q06187)", 7.82],
  ["CC(=O)N1CCc2cc(Nc3ncc4c(Nc5c(C)cccc5C)nn(C)c4n3)ccc2C1 [Example 8]", "Bruton's tyrosine kinase (BTK) (Homo sapiens (Human), UniProt Q06187)", 9.00],
  ["Cc1cccc(C)c1Nc1nn(C)c2nc(Nc3ccc4c(c3)CCN(C(=O)C(F)(F)F)C4)ncc12 [Example 6]", "Bruton's tyrosine kinase (BTK) (Homo sapiens (Human), UniProt Q06187)", 8.00]
]}

###

System: TMD8 cells
Test: TMD8 cell growth inhibition (WST-1, 72 hours)
Format: cell-based
Settings: Homo sapiens, TMD8 ABC type DLBCL cell line, WST-1, absorbance 450 nm
Item-by-item account of IC50

{"columns": ["COMPOUND", "IC50 [µM]"],
 "data": [
  ["Cc1cccc(C)c1Nc1nn(C)c2nc(Nc3ccc4c(c3)C(C(C)C)N(C)CC4)ncc12 (stereo not shown)", 0.274],
  ["Cc1cccc(C)c1Nc1nn(C)c2nc(Nc3ccc4c(c3)CN(C)CC4)ncc12", 0.036],
  ["Cc1cc(C)c(Cl)c(Nc2nn(C)c3nc(Nc4ccc5c(c4)CNCC5)ncc23)c1", 0.832],
  ["C=CC(=O)Nc1ccc(Nc2ncc3c(Nc4c(C)cccc4C)nn(C)c3n2)cc1", 0.0752],
  ["Cc1ccc(NC(=O)Nc2cccc(C(F)(F)F)c2)cc1Nc1nn(C)c2nc(Nc3ccc4c(c3)CNCC4)ncc12", 0.221],
  ["COCCOc1cc(C)c(Nc2nn(C)c3nc(Nc4ccc5c(c4)C(C)(C)NCC5)ncc23)c(C)c1", 0.013],
  ["COc1cc2c(cc1Nc1ncc3c(Nc4c(C)cccc4C)nn(C)c3n1)CCNC2", 0.572],
  ["CCN1CCc2ccc(Nc3ncc4c(Nc5c(C)cccc5C)nn(C)c4n3)cc2C1", 0.0379],
  ["Cn1nc(Nc2c(Cl)cccc2Cl)c2cnc(Nc3ccc4c(c3)CN(C(=O)C(F)(F)F)CC4)nc21", 0.243],
  ["CC(=O)N1CCc2ccc(Nc3ncc4c(Nc5c(C)cccc5C)nn(C)c4n3)cc2C1(C)C", 0.159],
  ["Cc1cc(F)cc(C)c1Nc1nn(C)c2nc(Nc3ccc4c(c3)CNCC4)ncc12", 0.069],
  ["Cc1ccc(NC(=O)c2cccc(C(F)(F)F)c2)cc1Nc1nn(C)c2nc(Nc3ccc4c(c3)CNCC4)ncc12", 0.018],
  ["Cc1cccc(C)c1Nc1nn(C)c2nc(Nc3ccc4c(c3)C(C)N(C)C(C)(C)C4)ncc12 (stereo not shown)", 0.0236],
  ["C=CC(=O)N1CCc2ccc(Nc3ncc4c(Nc5c(C)cccc5C)nn(C)c4n3)cc2C1", 0.032],
  ["Cc1ccc(NC(=O)c2cccc(C(F)(F)F)c2)cc1Nc1nn(C)c2nc(Nc3ccc4c(c3)C(C)N(C)CC4)ncc12 (stereo not shown)", 0.0101],
  ["Cc1cccc(C)c1Nc1nn(C)c2nc(Nc3ccc4c(c3)C(C)(C)N(C)CC4)ncc12", 0.00927]
]}

###

Test system: TMD8 cells
Experiment: TMD8 cell growth inhibition (WST-1, 72 hours)
Format: cell-based
Conditions: Homo sapiens, TMD8 ABC type DLBCL cell line, WST-1, absorbance 450 nm
IC50 under 0.1 µM gets Criterion met, anything at or over 0.1 µM gets Criterion not met.

{"columns": ["COMPOUND", "TARGET_SYSTEM", "ASSIGNED_LABEL"],
 "data": [
  ["CC(=O)N1Cc2cc(Nc3ncc4c(Nc5c(C)cccc5C)nn(C)c4n3)ccc2C(C)(C)C1", "TMD8 cells", "Criterion not met"],
  ["Cc1cccc(C)c1Nc1nn(C)c2nc(Nc3ccc4c(c3)CN(C(=O)CN(C)C)CC4)ncc12", "TMD8 cells", "Criterion met"],
  ["Cc1cccc(C)c1Nc1nn(C)c2nc(Nc3ccc4c(c3)CN(C(=O)C3CC3)CC4)ncc12", "TMD8 cells", "Criterion met"],
  ["Cc1cccc(C)c1Nc1nn(C2CCCC2)c2nc(Nc3ccc4c(c3)CNCC4)ncc12", "TMD8 cells", "Criterion met"],
  ["CC(=O)N1CCc2ccc(Nc3ncc4c(Nc5c(C)cccc5C)nn(C)c4n3)cc2C1C (stereo not drawn)", "TMD8 cells", "Criterion met"],
  ["Cc1ccc(NC(=O)c2cccc(C(F)(F)F)c2)c(C)c1Nc1nn(C)c2nc(Nc3ccc4c(c3)CNCC4)ncc12", "TMD8 cells", "Criterion not met"],
  ["CC(=O)N1Cc2cc(Nc3ncc4c(Nc5c(C)cccc5C)nn(C)c4n3)ccc2CC1(C)C", "TMD8 cells", "Criterion not met"],
  ["Cn1nc(Nc2c(Cl)cccc2Cl)c2cnc(Nc3ccc4c(c3)CNCC4)nc21", "TMD8 cells", "Criterion met"],
  ["CC(=O)N1CCc2cc(Nc3ncc4c(Nc5c(C)cccc5C)nn(C)c4n3)ccc2C1", "TMD8 cells", "Criterion met"],
  ["Cc1cccc(C)c1Nc1nn(C)c2nc(Nc3ccc4c(c3)CCN(C(=O)C(F)(F)F)C4)ncc12", "TMD8 cells", "Criterion not met"],
  ["CC(=O)N1CCc2ccc(Nc3ncc4c(Nc5c(Cl)cccc5Cl)nn(C)c4n3)cc2C1", "TMD8 cells", "Criterion not met"],
  ["Cc1ccc(C(=O)Nc2cccc(C(F)(F)F)c2)cc1Nc1nn(C)c2nc(Nc3ccc4c(c3)CNCC4)ncc12", "TMD8 cells", "Criterion met"],
  ["CC(=O)N1CCc2cc(Nc3ncc4c(Nc5c(Cl)cccc5Cl)nn(C)c4n3)ccc2C1", "TMD8 cells", "Criterion met"],
  ["Cc1cccc(C)c1Nc1nn(C)c2nc(Nc3ccc4c(c3)C(=O)NCC4)ncc12", "TMD8 cells", "Criterion not met"]
]}
